- test system: DNA topoisomerase 1 (Homo sapiens)
- measurement protocol: Inhibition of recombinant human topoisomerase-1 assessed as decrease in relaxation of supercoiled pBR322 plasmid DNA at 100 uM after 30 mins by ethidium bromide staining based agarose gel electrophoresis relative to control
// reported inhibition per item

Here's what some known entries look like.
Challenge: I'd like to know its inhibition. The compound in question is Oc1cccc(-c2cc(-c3ccccc3Cl)cc(-c3ccccc3O)n2)c1
Response given: 2.2%

Challenge: I'd like to know its inhibition. The compound in question is Oc1ccc(-c2cc(-c3cccc(Cl)c3)cc(-c3cccc(O)c3)n2)cc1
Response given: 62.3%

Challenge: I'd like to know its inhibition. The compound in question is Oc1ccc(-c2cc(-c3ccccc3Cl)cc(-c3cccc(O)c3)n2)cc1
Response given: 42.3%

Challenge: I'd like to know its inhibition. The compound in question is Oc1cccc(-c2cc(-c3ccc(Cl)cc3)cc(-c3cccc(O)c3)n2)c1
Response given: 68.2%

Challenge: I'd like to know its inhibition. The compound in question is Oc1ccc(-c2cc(-c3ccc(Cl)cc3)cc(-c3ccc(O)cc3)n2)cc1
Response given: 82.7%

---
Challenge: I'd like to know its inhibition. The compound in question is Oc1ccc(-c2cc(-c3ccccc3Cl)cc(-c3ccccc3O)n2)cc1
Response given: 35%

Challenge: I'd like to know its inhibition. The compound in question is Oc1ccc(-c2cc(-c3ccccc3Cl)cc(-c3ccc(O)cc3)n2)cc1
Response given: 66.9%

Challenge: I'd like to know its inhibition. The compound in question is Oc1ccccc1-c1cc(-c2ccccc2Cl)cc(-c2ccccc2O)n1
Response given: 7.2%

Challenge: I'd like to know its inhibition. The compound in question is Oc1cccc(-c2cc(-c3ccccc3Cl)cc(-c3cccc(O)c3)n2)c1
Response given: 44.2%

Challenge: I'd like to know its inhibition. The compound in question is Oc1ccc(-c2cc(-c3cccc(Cl)c3)cc(-c3ccc(O)cc3)n2)cc1
Response given: 79.1%

Challenge: I'd like to know its inhibition. The compound in question is Oc1cccc(-c2cc(-c3cccc(Cl)c3)cc(-c3cccc(O)c3)n2)c1
Response given: 61.4%

Challenge: I'd like to know its inhibition. The compound in question is Oc1ccc(-c2cc(-c3ccc(Cl)cc3)cc(-c3cccc(O)c3)n2)cc1
Response given: 70.6%

Challenge: I'd like to know its inhibition. The compound in question is Oc1cccc(-c2cc(-c3cccc(Cl)c3)cc(-c3ccccc3O)n2)c1
Response given: 9%

Challenge: I'd like to know its inhibition. The compound in question is Oc1cccc(-c2cc(-c3ccc(Cl)cc3)cc(-c3ccccc3O)n2)c1
Response given: 70%

Challenge: I'd like to know its inhibition. The compound in question is Oc1ccccc1-c1cc(-c2ccc(Cl)cc2)cc(-c2ccccc2O)n1
Response given: 0.8%

Challenge: I'd like to know its inhibition. The compound in question is Oc1ccccc1-c1cc(-c2cccc(Cl)c2)cc(-c2ccccc2O)n1
Response given: 5%

Challenge: I'd like to know its inhibition. The compound in question is Oc1ccc(-c2cc(-c3ccc(Cl)cc3)cc(-c3ccccc3O)n2)cc1
Response given: 8.6%

###

- Tested on: HeLa
- measurement protocol: Potency index, ratio of camptothecin IC50 to compound IC50 for human HeLa cells
- Assay type: functional
// reported Ratio IC50 per item
The response must contain the number and no unit.

Challenge: I'd like to know its Ratio IC50. The compound in question is Oc1ccc(-c2cc(-c3ccccc3Cl)cc(-c3ccccc3O)n2)cc1
Response given: 0.01

---
Challenge: I'd like to know its Ratio IC50. The compound in question is Oc1ccc(-c2cc(-c3ccccc3Cl)cc(-c3ccc(O)cc3)n2)cc1
Response given: 0.09

Challenge: I'd like to know its Ratio IC50. The compound in question is Oc1cccc(-c2cc(-c3ccc(Cl)cc3)cc(-c3ccccc3O)n2)c1
Response given: 0.01
